TEST_SUMMARY: inhibition of RSV-induced cytopathic effect – HEp-2 cells, primary 10 µM value included (AID 2391)
STUDY_CONDITIONS: at 10 µM, hits give high values
Hit rate of the full screen: of about 310,000 compounds, about 410 (0.13%) were called active. Not shown: some 2% with an inconclusive outcome. A selection follows. Potency and affinity values are given separately.
QUANTITY: CPE inhibition (%)
Respond with the bare value in %.

Consider the molecule shown here: CCc1nnc(NC(=O)Cc2c[nH]c3ccccc23)s1 What is its recorded CPE inhibition?
2.52

Need CPE inhibition of C#CCOCCOCCOCCNc1nc(N2CCN(C(=O)CCCCCCCCCCNC(=O)[C@H](CCCCN)n3cc(C)nn3)CC2)nc(N2CCN(C(=O)CCCCCCCCCCNC(=O)[C@@H]([C@H](C)O)n3cc(C)nn3)CC2)n1 , thanks.
8.35

Give its CPE inhibition value. Item: Cc1[nH]c2ccc(-c3nnc(SCC(=O)c4ccc(F)cc4)o3)cc2c1C
-1.57

What value of measured CPE inhibition is listed for O=C(CSc1nccc(=O)[nH]1)c1ccccc1Br ?
2.89

Which CPE inhibition is reported for this molecule? O=C(O)c1ccccc1N=Nc1c(O)[nH]c2ccc([N+](=O)[O-])cc12
1.41

Name the recorded CPE inhibition for Cc1cc(C)c(C)c(C(=O)CSc2nnc(-c3ccc4[nH]c(C)c(C)c4c3)o2)c1C .
55.5

I have this molecule here, O=C1N=C(N2CCOCC2)S/C1=C\c1ccc(OS(=O)(=O)c2ccccc2)cc1 , and I need its recorded CPE inhibition.
0.11

Need CPE inhibition of CN1CCN(C2=NC(=O)/C(=C/c3ccccc3OS(=O)(=O)c3ccccc3)S2)CC1 , thanks.
1.12

Can you look up the measured CPE inhibition of CCc1ccc(CNC(=O)c2ccc(OC3CCN(C(C)=O)CC3)c(OC)c2)nc1 for me?
1.43
